Target: hERG (KV11.1) (Homo sapiens, UniProt Q12809)
Sequence (Q12809 whole entry): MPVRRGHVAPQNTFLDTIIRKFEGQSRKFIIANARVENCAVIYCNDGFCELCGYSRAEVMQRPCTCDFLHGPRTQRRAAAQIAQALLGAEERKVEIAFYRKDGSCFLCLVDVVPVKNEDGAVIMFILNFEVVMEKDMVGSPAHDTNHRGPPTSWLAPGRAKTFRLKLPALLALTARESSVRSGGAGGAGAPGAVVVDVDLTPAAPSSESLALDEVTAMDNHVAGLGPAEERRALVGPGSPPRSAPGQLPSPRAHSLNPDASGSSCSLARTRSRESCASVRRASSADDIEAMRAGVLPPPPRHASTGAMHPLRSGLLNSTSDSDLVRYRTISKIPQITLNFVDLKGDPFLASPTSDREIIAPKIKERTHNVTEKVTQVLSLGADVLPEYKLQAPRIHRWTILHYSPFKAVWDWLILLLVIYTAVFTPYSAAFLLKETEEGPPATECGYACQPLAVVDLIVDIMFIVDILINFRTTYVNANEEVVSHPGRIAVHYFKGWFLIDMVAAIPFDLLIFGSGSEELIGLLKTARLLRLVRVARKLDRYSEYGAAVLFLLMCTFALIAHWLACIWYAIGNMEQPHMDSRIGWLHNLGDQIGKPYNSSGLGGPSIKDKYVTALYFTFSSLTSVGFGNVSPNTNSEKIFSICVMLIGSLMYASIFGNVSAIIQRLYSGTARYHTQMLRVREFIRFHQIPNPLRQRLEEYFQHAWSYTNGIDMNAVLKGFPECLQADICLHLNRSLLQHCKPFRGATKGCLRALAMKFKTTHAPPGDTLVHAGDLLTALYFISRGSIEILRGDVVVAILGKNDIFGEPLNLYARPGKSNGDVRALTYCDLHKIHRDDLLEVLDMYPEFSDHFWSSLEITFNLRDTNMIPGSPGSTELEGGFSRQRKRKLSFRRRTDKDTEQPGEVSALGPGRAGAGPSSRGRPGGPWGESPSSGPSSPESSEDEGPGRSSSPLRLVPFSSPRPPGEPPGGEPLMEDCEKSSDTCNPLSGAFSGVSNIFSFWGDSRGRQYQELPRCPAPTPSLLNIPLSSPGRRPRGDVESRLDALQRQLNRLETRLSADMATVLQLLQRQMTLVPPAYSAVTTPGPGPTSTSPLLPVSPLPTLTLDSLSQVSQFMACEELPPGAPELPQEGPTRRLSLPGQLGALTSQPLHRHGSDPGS
Assay: Automated planar patch-clamp (APC, QPatch II 48), voltage-ladder protocol, CHO cells stably expressing human hERG
Details: * Greatest efficacy achieved with a concentration between 10 and 30 µM (no fit); 1 = no reduction of Gmax
Consider the following compounds and their measured hERG channel Efficacy (max reduction in Gmax) Gmin, marked * readings.

Worked examples, 4 compounds total:
| sample_smiles | value_reported |
| --- | --- |
| CCCCCN1C(=O)/C(=N\NC(=O)c2ccccc2)c2ccccc21 | 0.79 |
| CCCCCn1cc(C(=O)c2ccc(CC)c3ccccc23)c2ccccc21 | 0.89 |
| CCCCCn1cc(C(=O)C2C(C)(C)C2(C)C)c2ccccc21 | 0.94 |
| Cc1ccc(S(=O)(=O)n2nc(C(=O)NC(C)(C)c3ccccc3)c3ccccc32)cc1 | 0.94 |

Give recorded hERG channel Efficacy (max reduction in Gmax) Gmin, marked * with hERG (KV11.1) (Homo sapiens, UniProt Q12809) for the following compound: CCCCCn1nc(C(=O)NC23CC4CC(CC(C4)C2)C3)c2ccccc21
0.90

---

Target: hERG (KV11.1) (Homo sapiens, UniProt Q12809)
Assay: Automated planar patch-clamp (APC, QPatch II 48), voltage-ladder protocol, CHO cells stably expressing human hERG
Conditions: APC concentration-response, 1.11 to 30 µM
recorded_endpoint: effect on Gmax of hERG (in words)

Worked examples, 4 molecules total:
| molecule | effect on Gmax of hERG (in words) |
| --- | --- |
| CCCCCN1C(=O)/C(=N\NC(=O)c2ccccc2)c2ccccc21 [BZO-POXIZID] | non-inhibitor |
| CCCCCn1cc(C(=O)C2C(C)(C)C2(C)C)c2ccccc21 [UR-144] | non-inhibitor |
| CCCCCn1nc(C(=O)NC23CC4CC(CC(C4)C2)C3)c2ccccc21 [APINACA] | non-inhibitor |
| CC(C)(C)[C@H](NC(=O)c1n[nH]c2ccc(Br)cc12)C(N)=O [ADB-5'Br-INACA] | no or limited effects |

Recorded effect on Gmax of hERG (in words) of Cc1ccc(S(=O)(=O)n2nc(C(=O)NC(C)(C)c3ccccc3)c3ccccc32)cc1 [Cumyl-TsINACA] , please.
non-inhibitor

Recorded effect on Gmax of hERG (in words) of C=CCCCn1nc(C(=O)NC(C(N)=O)C(C)(C)C)c2ccccc21 (centres unmarked) [ADB-4en-PINACA] , please.
no or limited effects

---

Target: KV7.1/KCNE1 (Homo sapiens)
Assay: Automated patch-clamp (APC, population patch), CHO cells stably expressing human KV7.1/KCNE1
Format: cell-based
Details: 10 µM, both channels by APC
Text: Both hERG and KV7.1/KCNE1 contribute to cardiomyocyte repolarization (Fig. 1g). Inhibition of KV7.1/KCNE1 alone can be proarrhythmic. Moreover, under conditions with impaired hERG function, upregulation of KV7.1/KCNE1 has been proposed to partially compensate for the loss of hERG [38, 39]. […] To assess if SCRAs also affect KV7.1/KCNE1, we used mammalian CHO cells stably expressing human KV7.1/KCNE1. […]
recorded_endpoint: Gmax effect on hERG versus KV7.1/KCNE1 (in words)

| compound | value_reported |
| --- | --- |
| COC(=O)C(NC(=O)c1nn(CCCCCF)c2ccccc12)C(C)(C)C (stereo not shown) | effects only on hERG |
| O=C(N/N=C1\C(=O)N(CCCCCF)c2ccccc21)c1ccccc1 | effects only on hERG |
| O=C(c1cccc2ccccc12)c1cn(CCCCCF)c2ccccc12 | effects only on hERG |

---

Consider the following molecules and their measured IC50 readings.
Target: hERG (KV11.1) (Homo sapiens)
Assay: Automated planar patch-clamp (APC, QPatch II 48), voltage-ladder protocol, CHO cells stably expressing human hERG
I only need the number, in µM, no unit after it.

| molecule | recorded_endpoint | value_reported |
| --- | --- | --- |
| CCCCCn1ccc(C(=O)c2cccc3ccccc23)c1 [JWH-030] | IC50 | 23.1 |

Give recorded IC50 with hERG (KV11.1) (Homo sapiens) for the following molecule: C=CCCCN1C(=O)/C(=N\NC(=O)c2ccccc2)c2ccccc21 [BZO-4en-POXIZID]
3.9

Give recorded IC50 with hERG (KV11.1) (Homo sapiens) for the following molecule: CCCCn1nc(C(=O)NC(C(=O)OC)C(C)(C)C)c2cc(Br)ccc21 (stereo not drawn) [MDMB-5'Br-BUTINACA]
6.2

Give recorded IC50 with hERG (KV11.1) (Homo sapiens) for the following molecule: O=C(N/N=C1\C(=O)N(CCCCCF)c2ccccc21)c1ccccc1 [5F-BZO-POXIZID]
0.9

Give recorded IC50 with hERG (KV11.1) (Homo sapiens) for the following molecule: COC(=O)C(NC(=O)c1nn(CCCCCF)c2ccccc12)C(C)(C)C (stereo not drawn) [5F-MDMB-PINACA]
9

Give recorded IC50 with hERG (KV11.1) (Homo sapiens) for the following molecule: CCCCCn1cc(C(=O)c2cccc3ccccc23)c2ccccc21 [JWH-018]
17.3

Give recorded IC50 with hERG (KV11.1) (Homo sapiens) for the following molecule: COC(=O)C(NC(=O)c1cn(CC2CCCCC2)c2ccccc12)C(C)(C)C (stereo not drawn) [MDMB-CHMICA]
3.2

Give recorded IC50 with hERG (KV11.1) (Homo sapiens) for the following molecule: CC1(C)C(C(=O)c2cn(CCCCCF)c3ccccc23)C1(C)C [XLR-11]
20.4

---

Target: hERG (KV11.1) (Homo sapiens, UniProt Q12809)
Assay: Automated planar patch-clamp (APC, QPatch II 48), voltage-ladder protocol, CHO cells stably expressing human hERG
Details: best fit; 1 = no reduction of Gmax, 0 = complete reduction; APC, 22 °C
Consider the following molecules and their measured hERG channel Efficacy (max reduction in Gmax) Gmin readings.
I only need the number, thanks.

Worked examples, 5 molecules total:
| molecule | value_reported |
| --- | --- |
| C=CCCCn1nc(C(=O)N[C@H](C(=O)OC)C(C)(C)C)c2ccccc21 | 0.27 |
| C=CCCCn1nc(C(=O)NC(C(N)=O)C(C)(C)C)c2ccccc21 (centres unmarked) | 0.52 |
| COC(=O)[C@@H](NC(=O)c1cn(CC2CCCCC2)c2ccccc12)C(C)C | 0.75 |
| COC(=O)[C@@H](NC(=O)c1n[nH]c2ccc(Br)cc12)C(C)(C)C | 0.57 |
| COC(=O)[C@@H](NC(=O)c1nn(Cc2ccc(F)cc2)c2ccccc12)C(C)(C)C | 0.25 |

Recorded hERG channel Efficacy (max reduction in Gmax) Gmin of COC(=O)C(NC(=O)c1nn(CC2CCCCC2)c2ccccc12)C(C)(C)C (centres unmarked) [MDMB-[…]] , please.
0.60

Recorded hERG channel Efficacy (max reduction in Gmax) Gmin of CC(C)[C@H](NC(=O)c1nn(CC2CCCCC2)c2ccccc12)C(N)=O , please.
0.00

Recorded hERG channel Efficacy (max reduction in Gmax) Gmin of CCCCn1nc(C(=O)NC(C(=O)OC)C(C)(C)C)c2cc(Br)ccc21 (centres unmarked) , please.
0.67

---

Molecular target: human CB1 receptor (Homo sapiens, UniProt P21554)
Construct: host or cells: CHO-K1 stably expressing CB1, apoaequorin and Gα16
Sequence (P21554 whole entry): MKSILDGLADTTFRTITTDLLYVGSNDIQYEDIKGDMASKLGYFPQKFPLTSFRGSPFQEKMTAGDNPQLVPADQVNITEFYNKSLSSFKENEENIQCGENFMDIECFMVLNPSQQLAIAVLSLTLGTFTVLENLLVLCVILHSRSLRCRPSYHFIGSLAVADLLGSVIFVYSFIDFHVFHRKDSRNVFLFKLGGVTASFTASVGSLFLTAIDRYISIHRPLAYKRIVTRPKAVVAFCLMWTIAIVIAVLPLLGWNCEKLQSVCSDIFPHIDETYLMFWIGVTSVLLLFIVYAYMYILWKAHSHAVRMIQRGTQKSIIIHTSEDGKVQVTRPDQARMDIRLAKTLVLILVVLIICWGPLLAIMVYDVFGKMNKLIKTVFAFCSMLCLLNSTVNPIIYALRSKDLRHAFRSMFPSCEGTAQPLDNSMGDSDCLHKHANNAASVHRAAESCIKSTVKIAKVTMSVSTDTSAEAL
Assay: AequoScreen intracellular calcium release assay, CHO-K1 cells stably expressing CB1
Assay type: cell-based
Settings: normalized to median EC50 of JWH-018; n ≥ 3 (JWH-030 n = 2); read-out: CB1 receptor Potency EC50
Consider the following compounds and their measured pEC50 readings.
Field pEC50 (float): negative decimal logarithm of the concentration in molar.

Worked examples, 5 compounds total:
| compound | recorded_endpoint | value_reported |
| --- | --- | --- |
| COC(=O)[C@@H](NC(=O)c1nn(Cc2ccc(F)cc2)c2ccccc12)C(C)(C)C [MDMB-FUBINACA] | pEC50 | 9.10 |
| O=C(c1cccc2ccccc12)c1nn(CCCCCF)c2ccccc12 [THJ-2201] | pEC50 | 7.34 |
| N#CCCCCn1nc(C(=O)NCc2ccccc2)c2ccccc21 [Benzyl-4CN-BUTINACA] | pEC50 | 6.39 |
| C=CCCCn1nc(C(=O)N[C@H](C(=O)OC)C(C)(C)C)c2ccccc21 [MDMB-4en-PINACA] | pEC50 | 7.78 |
| C=CCCCn1nc(C(=O)NC(C(N)=O)C(C)(C)C)c2ccccc21 (stereo not shown) [ADB-4en-PINACA] | pEC50 | 7.76 |

Give recorded pEC50 with human CB1 receptor (Homo sapiens, UniProt P21554) for the following compound: CC(C)(C)C(NC(=O)c1cn(CC2CCCCC2)c2ccccc12)C(N)=O (stereo not shown) [ADB-CHMICA]
7.80

Give recorded pEC50 with human CB1 receptor (Homo sapiens, UniProt P21554) for the following compound: CC(C)[C@H](NC(=O)c1cn(CC2CCCCC2)c2ccccc12)C(N)=O [AB-CHMICA]
7.70

Give recorded pEC50 with human CB1 receptor (Homo sapiens, UniProt P21554) for the following compound: COC(=O)[C@@H](NC(=O)c1cn(CCCCF)c2ccccc12)C(C)(C)C [4F-MDMB-BUTICA]
7.78

Give recorded pEC50 with human CB1 receptor (Homo sapiens, UniProt P21554) for the following compound: CCCCCCN1C(=O)C(=NNC(=O)c2ccccc2)c2ccccc21 [BZO-HEXOXIZID]
5.29

Give recorded pEC50 with human CB1 receptor (Homo sapiens, UniProt P21554) for the following compound: COC(=O)[C@@H](NC(=O)c1n[nH]c2ccc(Br)cc12)C(C)(C)C [MDMB-5'Br-INACA]
6.07

Give recorded pEC50 with human CB1 receptor (Homo sapiens, UniProt P21554) for the following compound: CC(C)(C)[C@H](NC(=O)c1n[nH]c2ccc(Br)cc12)C(N)=O [ADB-5'Br-INACA]
5.64

Give recorded pEC50 with human CB1 receptor (Homo sapiens, UniProt P21554) for the following compound: CCCCn1nc(C(=O)NC(C(N)=O)C(C)(C)C)c2cc(Br)ccc21 (stereo not shown) [ADB-5'Br-BUTINACA]
7.74

All figures here come from paper PMC13586173.
